Overview of reported melting point across a group of molecules:

CCCCCCCCCCCOc1ccc(-c2ccc(OCC(C)OC(=O)CC(C)C)cc2)cc1 (centres undefined) = 65.4 to 66.5 °C

IN: Report measured melting point; entry is COCCOc1ccc(/C=C/C(=O)NS(=O)(=O)c2cccc(Cl)c2)c(Oc2ncc(C(F)(F)F)cc2Cl)c1
OUT: 157 to 158 °C

IN: Supply recorded melting point for O=C(O)CSc1cccc(CNC(=O)C2Cc3ccccc3N2S(=O)(=O)c2ccc(-c3cccc(C(F)(F)F)c3)cc2)c1 (centres undefined) here.
OUT: 75 °C

IN: Input CCNC(=O)c1ccc(Nc2nc(OCC3CCCCC3)c3nc[nH]c3n2)cc1 , output reported melting point.
OUT: 156 to 158 °C

----------
Catalogue of melting point readings, one per entry.

Recorded melting point, per entry:
Oc1cccc(-c2csc(-c3cccnc3)n2)c1 = 180 to 181 °C
Cn1ncnc1COc1nn2c(-c3ccccc3F)nnc2cc1C1(F)CCC1 = 154 to 162 °C
CS(=O)(=O)NCCn1c(CO)nc2c(N)nc3cccnc3c21 = 239 to 242 °C
CC(C)(CO)NC(=O)c1cccnc1 = 91 to 93 °C
C[C@@H](NC(=CC(=O)OC(C)(C)C)Cc1cc(F)c(F)cc1F)c1ccccc1 = 76 °C
Cc1cc(N2CCc3ccccc32)nc(N)n1 = 242 to 244 °C
CC=CC(Oc1nc(OC)cc(OC)n1)C(C)(C)C#N (stereo unspecified) = 91 to 92 °C
CCN(CC)C(=O)c1ccccc1-c1ccc2ccccc2c1 = 52 to 53 °C
CC(C)(c1ccc([N+](=O)[O-])cc1)c1ccc([N+](=O)[O-])cc1 = 135 to 137 °C
COC(=N)N1CCC(c2n[nH]c3cc(F)ccc23)CC1 = 162 to 164 °C

IN: Quote melting point reported for O=C(NC1CCC(O)CC1)C1CC1 (stereo unspecified) please.
OUT: 220 to 222 °C

IN: State its melting point for this compound: CCCCCS(=O)(=O)NC(=O)CCc1cc(OC(C)C)nn1Cc1ccc(C(F)(F)F)cc1Cl
OUT: 147 to 149 °C

IN: Check the records and state melting point for Cc1onc(NS(=O)(=O)c2ccccc2-c2ccc(-c3ncco3)cc2Cn2ccc(C(F)(F)F)n2)c1C
OUT: 89 to 99 °C

IN: Determine its reported melting point: C#Cc1ccc(C2SCC(C(C)(C)C)CS2)cc1 (stereo unspecified)
OUT: 149 °C

IN: Using the record for CCN(c1ccc(C)c2cc(-c3ncc(CN4CCN(C(C)=O)CC4)s3)[nH]c12)S(=O)(=O)c1cccs1 , state its measured melting point.
OUT: 157 to 158 °C

IN: State, in one line, measured melting point of CCCC12CCC(=O)C=C1c1c(cc(OCC3=NCCN3)c(Cl)c1Cl)C2 (stereo unspecified)
OUT: 152 to 154 °C

IN: State its melting point: [N-]=[N+]=N[C@@H]1CN2C(=O)N(c3cc(Cl)cc(Cl)c3)C(=O)[C@]2(Cc2ccc(Br)cc2)C1
OUT: 58.9 °C

IN: Give the reported value of melting point for this record: O=C(Nc1ccc(F)cc1)NN1CCN(C(=O)Cn2c(=O)sc3ccc(Cl)cc32)CC1
OUT: > 250 °C

IN: Given the compound Cc1cc([N+](=O)[O-])nc(C)c1C(N)=O , write its reported melting point.
OUT: 179 to 180 °C

IN: Provide one value: measured melting point of CC(C)(C)OC(=O)N1CCC[C@H](O)[C@H](NC(=O)c2ccc(OC(C)(C)C)cc2)C1
OUT: 132 °C

IN: Using the record for CNCC(O)CN1CCN(CC(O)Cn2c3ccc(Br)cc3c3cc(Br)ccc32)CC1 (stereo unspecified) , state its measured melting point.
OUT: 65 to 75 °C

----------
Parameter melting point: see the listing below.

In the examples that follow, each entry is paired with its recorded melting point.
COc1ccc(C(=O)N2c3ccccc3C(n3c4ccccc4c4ccccc43)CC2CCCCC(=O)O)cc1OC (centres undefined) = 226 to 228 °C
NC1N=C(c2ccccc2)C=CS1 (centres undefined) = 137 °C
C=Cc1cc(CNC(=O)C(F)=Cc2ccc(C(C)(C)C)cc2)cc(F)c1NS(C)(=O)=O = 165 to 167 °C
COC(=O)Cc1ccc(C(F)(F)F)cc1[N+](=O)[O-] = 104 to 105 °C
CC1(C)CCC(C)(C)c2cc(-c3cc(-c4ccc(C(=O)O)cc4O)ccc3-c3ccccc3)ccc21 = 183 to 185 °C
Cc1cc(NS(=O)(=O)c2ccc(S(N)(=O)=O)cc2)c2[nH]cc(Br)c2c1 = 196 to 197 °C
CCOc1ccccc1C=C1CCc2c1oc1ccc(C(=O)OC)cc1c2=O = 189 to 192 °C
O=C(O)C(=O)c1ccc(F)c(Br)c1 = 68 to 73 °C

Now let's try a different one.
IN: Retrieve melting point measured for Cc1nc(C)n(-c2cc([C@@H]3C[C@H]3c3nc4ccccc4n3C)nc(C#N)n2)n1 (relative stereo) and print it.
OUT: 229 to 231 °C

----------
Reported melting point values for the following compounds.

O=C(O)COc1cc(Cl)ccc1C(=O)NCc1cccc(F)c1 = 155 °C
Cc1cnn(-c2cc(N)c(Cl)cc2Cl)c(=O)c1Br = 211 °C
O=C1NC(=O)C(CC#Cc2ccc(Cl)cc2)(S(=O)(=O)c2ccc(F)cc2)S1 (configuration not stated) = 176 to 177 °C
CC(C)(C)OC(=O)CNC(=S)Nc1cccc(C#N)c1 = 131 to 132 °C
COc1ccc(OCC(=O)O)c(C(Nc2ccc(C(=N)N)cc2)C(=O)O)c1 (racemic) = 213 °C
COCc1c(-c2ccno2)ncc2[nH]c3ccc(OCc4ccccc4)cc3c12 = 125 to 126 °C
CN(C)C1CCc2[nH]c3cc(O)ccc3c2C1 (configuration not stated) = 286 to 288 °C
O=C(c1ccc(O)cc1)c1oc2ccccc2c1-c1ccc(Cl)cc1 = 220 to 221 °C
COC1OC2OC3(C)CCC4C(C)CCC(C1C)C24OO3 (configuration not stated) = 73 to 74.5 °C
Clc1ccc(SC(CCc2ccccc2)Cn2ccnc2)cc1Cl (configuration not stated) = 145 to 147 °C

IN: Look up melting point of CN(CCNC(=O)NCCSCc1csc(NC(=N)N)n1)CCN(Cc1ccc(F)cc1)c1ccccn1 and report it.
OUT: 132 °C

IN: Give a short answer stating reported melting point for CCCCOCCC(C)CCCC(C)(C)c1cc(O)c(C(C)(C)CCCC(C)CCOCCCC)cc1O (configuration not stated) .
OUT: 86 to 89 °C

IN: Tell me measured melting point for COc1cccc(C(F)(F)F)c1S(=O)(=O)Cl please.
OUT: 86 to 88 °C

IN: Dear colleague, please send me the reported melting point for COc1ccc(NC(=O)c2ccc(Cl)c(Cl)c2)cc1NCc1cccc(F)c1 when you can.
OUT: 197 to 199 °C

IN: For the compound O=C(O)Cn1cccc(O)c1=O , give its reported melting point.
OUT: 203 to 205 °C

IN: Given the compound CN(C)CC1CCC2(CC1)Nc1cc(Cl)c(S(N)(=O)=O)cc1S(=O)(=O)N2 (configuration not stated) , write its reported melting point.
OUT: 273 °C

IN: Output melting point of OCCCOC(c1ccccc1)c1ccccc1
OUT: 140 to 141 °C

IN: Kindly indicate its recorded melting point. Item: O=C(OCCN1CCNC1=O)c1ccccc1
OUT: 130 to 132 °C

IN: Please give the documented melting point of COC(=O)c1cncnc1NCc1ccncc1
OUT: 111 to 112 °C

IN: Identify the reported melting point for the following entry. O=C1CC[C@@H](COc2cccnc2)N1
OUT: 121 to 122 °C

IN: // fetch melting point given entry O=C(O)CCc1ccc(Sc2ccc(CCC(=O)O)cc2C(F)(F)F)c(C(F)(F)F)c1
OUT: 175 to 178 °C

IN: Determine from records and report melting point for O=C1SCC(O)=C1Cc1ccc(Cl)c(Cl)c1
OUT: 239 to 240 °C

----------
measured metric: melting point

Recorded melting point, per entry:
OCCOc1ccc2nc(S)sc2c1 = 162 to 165 °C
Cc1nc2c(NC(=O)OCCc3ccc([N+](=O)[O-])cc3)nc(=O)n(C3CC(O)C(CO)O3)c2nc1C (stereo unspecified) = 154 to 155 °C
O=c1[nH]c(=O)n(CCCCBr)c2nccnc12 = 154 to 155 °C

IN: In one line, give reported melting point of the entry COC(=O)c1ccc(OCCCNc2ccc3c(c2)OCO3)cc1 .
OUT: 124 to 127 °C

IN: Respond only with melting point recorded for Cc1cccc(N2Cc3ccccc3P2(=O)c2ccccc2)c1 (stereo unspecified)
OUT: 190 to 192 °C

IN: Give reported melting point value for CC(C)CC(NC(=O)Cc1ccc2ccccc2c1)C(=O)NC(Cc1ccccc1)C(=O)CSCc1ccco1 (stereo unspecified)
OUT: 123 to 125 °C

IN: Please report melting point for the following compound: Cc1ccc(C)c(C2C(=O)CC(C)(C)CC2=O)c1
OUT: 168 to 170 °C

IN: // fetch melting point given entry O=C(Cc1cccc(Oc2ccccc2)c1)Nc1cc(Cl)c(Cl)cc1[N+](=O)[O-]
OUT: 135 to 137 °C

Data credit: a melting point compilation (Tetko et al.; mined from patent text by program, amines drawn as free bases though some values may be those of a salt)
